Quick reference for pIC50 among some binders
Molecular target: T1, human GPCR135 (human, UniProt Q9NSD7 1-469)
T1 construct: Recombinant; also called SALPR
T1 sequence: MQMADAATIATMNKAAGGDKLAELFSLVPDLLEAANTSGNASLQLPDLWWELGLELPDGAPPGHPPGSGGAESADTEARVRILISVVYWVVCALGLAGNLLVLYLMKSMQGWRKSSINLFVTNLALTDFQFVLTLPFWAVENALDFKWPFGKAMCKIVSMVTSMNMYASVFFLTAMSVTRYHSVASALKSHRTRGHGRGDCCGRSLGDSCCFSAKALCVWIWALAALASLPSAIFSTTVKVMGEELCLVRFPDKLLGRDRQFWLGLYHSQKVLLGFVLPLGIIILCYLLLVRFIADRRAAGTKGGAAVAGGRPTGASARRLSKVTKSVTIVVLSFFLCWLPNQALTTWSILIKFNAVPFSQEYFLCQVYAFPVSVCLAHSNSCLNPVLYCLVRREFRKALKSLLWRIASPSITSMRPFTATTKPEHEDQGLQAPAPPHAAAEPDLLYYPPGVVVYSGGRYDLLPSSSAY
Assay: competition with [125I]-relaxin-3 (100 pM), COS-7 membranes with human GPCR135
Ends that are not written are not given here.
Lab note — pIC50 values are minus log10 of concentrations in M.

Some binders with known pIC50 results, for comparison:
{"columns": ["BINDER", "TEST READOUT", "MEASURED RESULT"],
 "data": [
  ["RAAPYGVRLCGREFIRAVIFTCGGSRWQDLQTLCCTDGCSMTDLSALC (ligand, disulfide (positions not given here); also: two chains (relaxin-3 B-chain, INSL5 A-chain), disulfide-linked, chain break not marked, Mature two-chain peptide: human relaxin-3 B-chain disulfide-linked to human INSL5 A-chain; FLAG tag removed; the tracer is kept under this same molecule; also called R3/5; I5/R3) [human relaxin-3/INSL5 chimeric polypeptide (R3/I5), mature]", "pIC50", 9.17],
  ["RAAPYGVRLCGREFIRAVIFTCGGSRWNPARYCCLSGCTQQDLLTLC (ligand, disulfide (positions not given here); also: two chains (relaxin-3 B-chain, INSL3 A-chain), disulfide-linked, chain break not marked, Mature two-chain peptide: human relaxin-3 B-chain disulfide-linked to human INSL3 A-chain; FLAG tag removed) [human relaxin-3/INSL3 chimeric polypeptide (R3/I3), mature]", "pIC50", 8.64]
]}

// pIC50 lookup, binder = human relaxin-3/relaxin-2 chimeric polypeptide (R3/R2), mature (ligand, disulfide (positions not given here); also: two-chain peptide (relaxin-3 B chain, relaxin-2 A chain), disulfide-linked, places not given here, Mature two-chain peptide: human relaxin-3 B-chain disulfide-linked to human relaxin-2 A-chain; FLAG tag removed) RAAPYGVRLCGREFIRAVIFTCGGSRWQLYSALANKCCHVGCTKRSLARFC , result: 8.92

// pIC50 lookup, binder = RAAPYGVRLCGREFIRAVIFTCGGSRWPYVALFEKCCLIGCTKRSLAKYC (ligand, disulfide (positions not given here); also: two chains (relaxin-3 B-chain, relaxin-1 A-chain), disulfide-linked, chain break not marked, Mature two-chain peptide: human relaxin-3 B-chain disulfide-linked to human relaxin-1 A-chain; Made in COS-7 cells with furin; the FLAG tag was removed with enterokinase) [human relaxin-3/relaxin-1 chimeric polypeptide (R3/R1), mature] , result: 8.54

// pIC50 lookup, binder = RAAPYGVRLCGREFIRAVIFTCGGSRWGYSEKCCLTGCTKEELSIAC (ligand, disulfide (positions not given here); also: two chains (relaxin-3 B-chain, INSL6 A-chain), disulfide-linked, chain break not marked, Mature two-chain peptide: human relaxin-3 B-chain disulfide-linked to human INSL6 A-chain; FLAG tag removed) [human relaxin-3/INSL6 chimeric polypeptide (R3/I6), mature] , result: 8.02
